// provenance: ChEMBL document CHEMBL5325511

TEST METHOD NOTES: Selectivity ratio of IC50 for FLT3 (unknown origin) to IC50 for JAK2 (unknown origin)
MEASURED METRIC: Ratio IC50

Below, each entry is followed by its recorded Ratio IC50 result.
Any idea what its Ratio IC50 is? The compound is Cc1cnc(Nc2ccc(CNC(=O)C3CC3)cc2)nc1-c1cnn(C(C)C)c1
77.7

Need Ratio IC50 of Cc1cnc(Nc2ccc(CNC(=O)CCl)cc2)nc1-c1cnn(C(C)C)c1 , thanks.
68.7

[I] Cc1cnc(Nc2ccc(CNC(=O)/C=C/C(=O)c3ccccc3)cc2)nc1-c1cnn(C(C)C)c1
[II] C=CS(=O)(=O)NCc1ccc(Nc2ncc(C)c(-c3cnn(C(C)C)c3)n2)cc1
[III] C=CC(=O)NCc1ccc(Nc2ncc(C)c(-c3cnn(C(C)C)c3)n2)cc1
Hello, I need these entries ordered by Ratio IC50, highest reading first. Thanks! The reply should contain the labels ordered as requested.
II, III, I

====

TESTED SYSTEM: Tyrosine-protein kinase JAK2 (Mus musculus, UniProt Q62120, V617F)
Sequence (Q62120 as listed by the source V617F): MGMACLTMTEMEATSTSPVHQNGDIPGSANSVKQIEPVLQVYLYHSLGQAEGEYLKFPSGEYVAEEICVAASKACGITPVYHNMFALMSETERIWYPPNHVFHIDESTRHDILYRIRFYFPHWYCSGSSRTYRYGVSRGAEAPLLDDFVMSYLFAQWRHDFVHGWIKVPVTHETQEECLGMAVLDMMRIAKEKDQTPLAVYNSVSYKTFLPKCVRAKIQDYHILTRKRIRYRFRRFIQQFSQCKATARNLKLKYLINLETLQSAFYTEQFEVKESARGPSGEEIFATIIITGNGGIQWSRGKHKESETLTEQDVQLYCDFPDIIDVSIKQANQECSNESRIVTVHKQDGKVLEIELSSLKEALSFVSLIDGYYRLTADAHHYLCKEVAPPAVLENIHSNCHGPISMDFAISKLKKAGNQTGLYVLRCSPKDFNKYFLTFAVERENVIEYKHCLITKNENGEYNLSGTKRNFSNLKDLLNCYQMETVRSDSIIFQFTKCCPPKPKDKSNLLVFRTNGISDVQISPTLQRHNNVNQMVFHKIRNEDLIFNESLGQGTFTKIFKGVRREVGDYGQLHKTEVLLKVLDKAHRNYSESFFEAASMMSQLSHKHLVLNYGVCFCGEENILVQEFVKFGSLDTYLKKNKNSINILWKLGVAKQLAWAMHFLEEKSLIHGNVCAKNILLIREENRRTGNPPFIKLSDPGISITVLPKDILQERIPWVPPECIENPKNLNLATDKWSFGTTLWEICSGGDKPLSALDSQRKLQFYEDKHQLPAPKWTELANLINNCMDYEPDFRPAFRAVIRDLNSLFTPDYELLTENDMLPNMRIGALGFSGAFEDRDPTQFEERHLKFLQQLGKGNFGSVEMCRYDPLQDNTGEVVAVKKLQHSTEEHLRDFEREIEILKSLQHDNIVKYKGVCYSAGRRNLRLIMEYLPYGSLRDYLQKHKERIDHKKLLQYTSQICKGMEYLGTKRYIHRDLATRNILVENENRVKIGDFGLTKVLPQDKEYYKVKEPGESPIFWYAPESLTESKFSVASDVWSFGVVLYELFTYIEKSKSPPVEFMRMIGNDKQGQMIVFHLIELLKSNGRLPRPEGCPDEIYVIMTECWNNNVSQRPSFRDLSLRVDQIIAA
TEST METHOD NOTES: Inhibition of JAK2 V617F mutant in mouse BaF3 cells
Format: cell-based
CONDITIONS USED: baf3
MEASURED METRIC: IC50 (nM)
Give a bare numeral; the unit nM is implied.

# returns recorded IC50 (system: Tyrosine-protein kinase JAK2 (Mus musculus, UniProt Q62120, V617F)) for Cc1cnc(Nc2ccc3c(c2)CCN(C(=O)/C=C/CN(C)C)C3)nc1-c1cnn(C(C)C)c1
41

====

TESTED SYSTEM: UniProt:O60674
Sequence (O60674 whole entry): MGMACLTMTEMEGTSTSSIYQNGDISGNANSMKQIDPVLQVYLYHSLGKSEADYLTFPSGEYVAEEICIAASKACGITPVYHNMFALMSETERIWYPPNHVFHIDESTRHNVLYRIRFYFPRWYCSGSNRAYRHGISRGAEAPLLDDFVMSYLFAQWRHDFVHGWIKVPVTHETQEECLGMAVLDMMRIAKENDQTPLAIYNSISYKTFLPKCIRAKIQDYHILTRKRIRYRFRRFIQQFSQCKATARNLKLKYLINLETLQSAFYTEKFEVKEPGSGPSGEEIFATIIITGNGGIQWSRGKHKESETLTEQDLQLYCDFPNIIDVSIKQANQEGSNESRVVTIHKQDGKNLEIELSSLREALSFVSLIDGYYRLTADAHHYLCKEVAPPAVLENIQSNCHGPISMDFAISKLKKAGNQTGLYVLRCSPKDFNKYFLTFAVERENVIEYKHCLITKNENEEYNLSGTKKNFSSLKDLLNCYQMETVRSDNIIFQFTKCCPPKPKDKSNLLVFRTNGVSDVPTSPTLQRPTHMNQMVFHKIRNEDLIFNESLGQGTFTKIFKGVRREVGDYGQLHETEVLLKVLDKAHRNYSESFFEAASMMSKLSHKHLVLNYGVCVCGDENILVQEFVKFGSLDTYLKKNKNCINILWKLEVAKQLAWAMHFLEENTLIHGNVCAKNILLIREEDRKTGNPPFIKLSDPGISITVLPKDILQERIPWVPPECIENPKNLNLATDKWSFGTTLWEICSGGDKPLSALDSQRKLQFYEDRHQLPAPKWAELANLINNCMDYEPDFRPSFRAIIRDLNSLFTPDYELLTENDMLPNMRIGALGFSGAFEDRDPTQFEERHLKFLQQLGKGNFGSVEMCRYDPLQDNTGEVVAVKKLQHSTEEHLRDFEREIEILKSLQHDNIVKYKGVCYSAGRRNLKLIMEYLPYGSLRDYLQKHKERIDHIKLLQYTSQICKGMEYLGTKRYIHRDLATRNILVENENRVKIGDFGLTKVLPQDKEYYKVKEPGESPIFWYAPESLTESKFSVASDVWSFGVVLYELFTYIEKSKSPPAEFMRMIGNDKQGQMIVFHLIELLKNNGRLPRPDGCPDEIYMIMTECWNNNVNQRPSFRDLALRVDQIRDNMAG
TEST METHOD NOTES: Inhibition of human JAK2 JH1 expressed in baculovirus infected Sf9 cells assessed as residual activity at 100 nM relative to control
MEASURED METRIC: Activity (%)

Completed entries (count: 4):
Form field: Activity recorded for Cc1cnc(Nc2ccc(CCNC(=O)CCl)cc2)nc1-c1cnn(C(C)C)c1 with UniProt:O60674 (enter value)
48

Quick check: Activity on UniProt:O60674, item Cc1cnc(Nc2ccc(CNC(=O)CCCN(C)C)cc2)nc1-c1cnn(C(C)C)c1 ?
55

Give UniProt:O60674 Activity for Cc1cnc(Nc2ccc(CCNC(=O)/C=C/CN(C)C)cc2)nc1-c1cnn(C(C)C)c1
64

Give the reported Activity for C=CS(=O)(=O)NCCc1ccc(Nc2ncc(C)c(-c3cnn(C(C)C)c3)n2)cc1 (system: UniProt:O60674).
30

[1] Cc1cnc(Nc2ccc(CCNC(=O)CCCl)cc2)nc1-c1cnn(C(C)C)c1
[2] Cc1cnc(Nc2ccc(CNC(=O)/C=C/CN(C)C)cc2)nc1-c1cnn(C(C)C)c1
[3] Cc1cnc(Nc2ccc(CNS(=O)(=O)C3CC3)cc2)nc1-c1cnn(C(C)C)c1
[4] Cc1cnc(Nc2ccc(CNC(=O)C3CC3)cc2)nc1-c1cnn(C(C)C)c1
Order these by Activity, descending, and give the full ranking. Order the labels as requested and give them as your answer.
1, 2, 4, 3
(1: 67%, 2: 35%, 4: 9%, 3: 1%)

====

TEST METHOD NOTES: Selectivity ratio of IC50 for FLT3 (unknown origin) to IC50 for JAK2 (unknown origin)
MEASURED METRIC: Ratio IC50

Which Ratio IC50 is listed for Cc1cnc(Nc2ccc(CNS(=O)(=O)C3CC3)cc2)nc1-c1cnn(C(C)C)c1 ?
59.4

[a] CCS(=O)(=O)NCc1ccc(Nc2ncc(C)c(-c3cnn(C(C)C)c3)n2)cc1
[b] Cc1cnc(Nc2ccc3c(c2)CCN(C(=O)/C=C/CN(C)C)C3)nc1-c1cnn(C(C)C)c1
When a and b are compared, which has the higher number for Ratio IC50? Write the label of whichever entry you select.
a
(a: 68.7, b: 20.7)

====

TESTED SYSTEM: UniProtKB P23458
Sequence (P23458 whole entry): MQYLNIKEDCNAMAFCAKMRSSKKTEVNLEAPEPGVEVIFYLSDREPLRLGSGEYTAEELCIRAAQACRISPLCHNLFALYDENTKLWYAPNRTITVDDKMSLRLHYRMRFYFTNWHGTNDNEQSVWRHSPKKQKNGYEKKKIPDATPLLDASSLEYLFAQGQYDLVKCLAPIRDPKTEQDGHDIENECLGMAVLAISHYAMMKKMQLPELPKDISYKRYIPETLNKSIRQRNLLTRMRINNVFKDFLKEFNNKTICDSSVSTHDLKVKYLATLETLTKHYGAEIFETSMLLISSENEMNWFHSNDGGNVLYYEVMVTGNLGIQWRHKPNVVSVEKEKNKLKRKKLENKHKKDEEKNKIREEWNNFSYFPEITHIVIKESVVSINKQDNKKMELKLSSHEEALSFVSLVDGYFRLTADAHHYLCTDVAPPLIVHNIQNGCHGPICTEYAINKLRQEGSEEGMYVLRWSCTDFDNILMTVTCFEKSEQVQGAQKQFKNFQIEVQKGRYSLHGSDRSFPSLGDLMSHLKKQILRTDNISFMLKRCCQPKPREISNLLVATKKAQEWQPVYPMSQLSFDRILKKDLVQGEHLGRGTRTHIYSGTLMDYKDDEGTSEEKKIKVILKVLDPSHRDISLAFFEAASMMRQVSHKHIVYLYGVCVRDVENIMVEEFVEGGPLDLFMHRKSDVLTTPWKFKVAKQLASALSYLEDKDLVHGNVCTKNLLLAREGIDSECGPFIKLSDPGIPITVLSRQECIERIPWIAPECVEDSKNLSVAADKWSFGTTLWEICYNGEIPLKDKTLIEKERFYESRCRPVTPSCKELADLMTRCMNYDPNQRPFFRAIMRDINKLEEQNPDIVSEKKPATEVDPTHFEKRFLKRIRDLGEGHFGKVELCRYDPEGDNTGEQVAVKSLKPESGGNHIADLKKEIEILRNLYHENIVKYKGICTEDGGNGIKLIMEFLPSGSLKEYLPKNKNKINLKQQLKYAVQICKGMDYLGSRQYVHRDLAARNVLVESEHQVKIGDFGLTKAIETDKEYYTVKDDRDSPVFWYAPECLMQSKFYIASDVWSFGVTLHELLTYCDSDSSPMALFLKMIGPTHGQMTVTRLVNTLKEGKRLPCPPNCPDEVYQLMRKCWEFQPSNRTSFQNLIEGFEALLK
TEST METHOD NOTES: Inhibition of JAK1 (unknown origin) in presence of Mg/ATP mixture by [gamma p33]-ATP based radiometric assay
MEASURED METRIC: IC50 (nM)

Record request: IC50 value, item CCS(=O)(=O)NCc1ccc(Nc2ncc(C)c(-c3cnn(C(C)C)c3)n2)cc1
142

[I] C=CS(=O)(=O)NCc1ccc(Nc2ncc(C)c(-c3cnn(C(C)C)c3)n2)cc1
[II] Cc1cnc(Nc2ccc(CNC(=O)/C=C/C(=O)c3ccccc3)cc2)nc1-c1cnn(C(C)C)c1
When the recorded IC50 values are compared, which is smaller: that of I or that of II ? Your answer should be the label of the entry you select.
II
(II: 43 nM, I: 193 nM)

====

TESTED SYSTEM: Receptor-type tyrosine-protein kinase FLT3 (Homo sapiens)
TEST METHOD NOTES: Inhibition of FLT3 (unknown origin) in presence of Mg/ATP mixture by [gamma p33]-ATP based radiometric assay
MEASURED METRIC: IC50 (nM)

Recorded IC50 for Cc1cnc(Nc2ccc(CNC(=O)CCl)cc2)nc1-c1cnn(C(C)C)c1 , please?
206

Quick check: IC50 of Cc1cnc(Nc2ccc(CNC(=O)/C=C/C(=O)c3ccccc3)cc2)nc1-c1cnn(C(C)C)c1 ?
108

Would you mind telling me what IC50 value was observed for Cc1cnc(Nc2ccc(CNS(=O)(=O)C3CC3)cc2)nc1-c1cnn(C(C)C)c1 ?
297

# query: IC50 of entry Cc1cnc(Nc2ccc(CNC(=O)C3CC3)cc2)nc1-c1cnn(C(C)C)c1
311

Entry CCS(=O)(=O)NCc1ccc(Nc2ncc(C)c(-c3cnn(C(C)C)c3)n2)cc1 has what IC50?
412

[1] C=CS(=O)(=O)NCc1ccc(Nc2ncc(C)c(-c3cnn(C(C)C)c3)n2)cc1
[2] Cc1cnc(Nc2ccc3c(c2)CCN(C(=O)/C=C/CN(C)C)C3)nc1-c1cnn(C(C)C)c1
[3] C=CC(=O)NCc1ccc(Nc2ncc(C)c(-c3cnn(C(C)C)c3)n2)cc1
Endpoint returns the given compounds ordered by ascending IC50. I would appreciate it if you listed the labels in the requested order.
2, 3, 1

====

TESTED SYSTEM: UniProt:O60674
pIC50: −log10 of the molar value.
MEASURED METRIC: pIC50

[P] Cc1cnc(Nc2ccc(CNC(=O)/C=C/C(=O)c3ccccc3)cc2)nc1-c1cnn(C(C)C)c1
[Q] Cc1cnc(Nc2ccc(CNC(=O)C3CC3)cc2)nc1-c1cnn(C(C)C)c1
Which has the smaller recorded pIC50, P or Q ? Output the label that corresponds to your choice.
P

====

TESTED SYSTEM: Receptor-type tyrosine-protein kinase FLT3 (Homo sapiens, UniProt P36888)
Sequence (P36888 whole entry): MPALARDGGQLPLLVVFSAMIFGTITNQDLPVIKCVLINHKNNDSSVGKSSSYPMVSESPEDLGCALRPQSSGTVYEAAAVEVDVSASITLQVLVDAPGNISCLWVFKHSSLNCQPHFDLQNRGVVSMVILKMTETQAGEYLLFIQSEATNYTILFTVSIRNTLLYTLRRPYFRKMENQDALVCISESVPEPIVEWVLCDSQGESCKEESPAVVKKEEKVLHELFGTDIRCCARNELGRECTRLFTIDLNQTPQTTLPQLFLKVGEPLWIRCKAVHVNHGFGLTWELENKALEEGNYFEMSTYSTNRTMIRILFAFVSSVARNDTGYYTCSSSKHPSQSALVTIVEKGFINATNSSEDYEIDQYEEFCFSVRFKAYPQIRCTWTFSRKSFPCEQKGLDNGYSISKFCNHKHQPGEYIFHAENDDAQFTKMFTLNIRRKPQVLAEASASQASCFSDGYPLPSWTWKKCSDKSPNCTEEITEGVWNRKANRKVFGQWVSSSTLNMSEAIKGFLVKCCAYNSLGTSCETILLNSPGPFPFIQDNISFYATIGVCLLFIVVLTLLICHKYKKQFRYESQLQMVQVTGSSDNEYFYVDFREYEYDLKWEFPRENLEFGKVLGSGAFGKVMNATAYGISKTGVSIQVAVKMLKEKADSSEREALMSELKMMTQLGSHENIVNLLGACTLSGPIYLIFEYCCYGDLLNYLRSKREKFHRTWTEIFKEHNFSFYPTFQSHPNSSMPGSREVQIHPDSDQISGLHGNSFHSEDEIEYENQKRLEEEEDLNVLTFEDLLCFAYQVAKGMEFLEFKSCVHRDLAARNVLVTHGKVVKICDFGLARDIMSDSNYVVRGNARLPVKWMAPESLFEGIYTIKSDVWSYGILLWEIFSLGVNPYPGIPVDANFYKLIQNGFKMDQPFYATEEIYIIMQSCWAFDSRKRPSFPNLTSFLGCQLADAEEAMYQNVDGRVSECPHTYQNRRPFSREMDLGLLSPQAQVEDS
TEST METHOD NOTES: Inhibition of FLT3 in human MOLM-13 cells
Format: cell-based
pIC50: −log10 of the molar value.
MEASURED METRIC: pIC50

# count of solved cases: 5
What value of pIC50 on Receptor-type tyrosine-protein kinase FLT3 (Homo sapiens, UniProt P36888) does Cc1cnc(Nc2ccc(CNC(=O)/C=C/C(=O)c3ccccc3)cc2)nc1-c1cnn(C(C)C)c1 have?
6.12

Form field: pIC50 recorded for Cc1cnc(Nc2ccc(CCNC(=O)CCl)cc2)nc1-c1cnn(C(C)C)c1 with Receptor-type tyrosine-protein kinase FLT3 (Homo sapiens, UniProt P36888) (enter value)
5.78

Param readout = pIC50; param system = Receptor-type tyrosine-protein kinase FLT3 (Homo sapiens, UniProt P36888); param query = CCS(=O)(=O)NCc1ccc(Nc2ncc(C)c(-c3cnn(C(C)C)c3)n2)cc1 ; response: value
5.82

Given the entry C=CC(=O)NCc1ccc(Nc2ncc(C)c(-c3cnn(C(C)C)c3)n2)cc1 , what pIC50 was observed with Receptor-type tyrosine-protein kinase FLT3 (Homo sapiens, UniProt P36888)?
5.75

Give Receptor-type tyrosine-protein kinase FLT3 (Homo sapiens, UniProt P36888) pIC50 for CCCS(=O)(=O)NCc1ccc(Nc2ncc(C)c(-c3cnn(C(C)C)c3)n2)cc1
6.05

[1] Cc1cnc(Nc2ccc(CNC(=O)CCCl)cc2)nc1-c1cnn(C(C)C)c1
[2] CCCCS(=O)(=O)NCc1ccc(Nc2ncc(C)c(-c3cnn(C(C)C)c3)n2)cc1
Of 1 and 2 , which one carries the higher reported pIC50? Please identify the chosen entry by its label.
2
